Target: α-glucosidase (Saccharomyces cerevisiae)
Sequence (P53341 whole entry): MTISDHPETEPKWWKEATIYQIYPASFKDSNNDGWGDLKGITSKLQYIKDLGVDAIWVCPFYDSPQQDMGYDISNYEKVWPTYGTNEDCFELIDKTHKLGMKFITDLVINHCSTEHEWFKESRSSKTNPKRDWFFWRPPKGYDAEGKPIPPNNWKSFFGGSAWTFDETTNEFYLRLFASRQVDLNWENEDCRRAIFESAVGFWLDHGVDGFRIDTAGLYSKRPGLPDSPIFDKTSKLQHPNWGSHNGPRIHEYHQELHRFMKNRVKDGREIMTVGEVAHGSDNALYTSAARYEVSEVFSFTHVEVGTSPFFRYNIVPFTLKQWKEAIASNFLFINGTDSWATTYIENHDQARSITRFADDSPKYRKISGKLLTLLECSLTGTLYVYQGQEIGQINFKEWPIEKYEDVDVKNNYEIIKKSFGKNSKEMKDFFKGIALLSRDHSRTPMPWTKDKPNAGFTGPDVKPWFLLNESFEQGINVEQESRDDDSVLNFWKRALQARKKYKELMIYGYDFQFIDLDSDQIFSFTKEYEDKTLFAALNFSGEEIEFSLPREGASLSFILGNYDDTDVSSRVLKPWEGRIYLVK
value.kind: Ki (µM)

Cc1ccc(-c2c(N)c(-c3ccc(Cl)cc3)n3nc(-c4ccccc4)nc3c2C#N)cc1 [Compound 15j] | 6.6

====

Biological target: α-glucosidase (Saccharomyces cerevisiae)
pIC50: −log10 of the molar value.
value.kind: pIC50

N#Cc1c(-c2ccccc2)c(N)c(-c2cccc(Cl)c2)n2nc(-c3ccccc3)nc12 [Compound 15d] | 4.34
N#Cc1c(-c2ccccc2)c(N)c(-c2ccccc2)n2nc(-c3ccccc3)nc12 [Compound 15a] | 4.69
COc1ccc(-c2c(N)c(-c3ccccc3)c(C#N)c3nc(-c4ccccc4)nn23)cc1 [Compound 15b] | 4.59
N#Cc1c(-c2ccc(Cl)cc2)c(N)c(-c2cccs2)n2nc(-c3ccccc3)nc12 [Compound 15t] | 4.12
COc1ccc(-c2c(N)c(-c3cccs3)n3nc(-c4ccccc4)nc3c2C#N)cc1 [Compound 15p] | 4.44
